Assign Ratio (T1/2 Compound/T1/2 Reference) to each entry below.
Molecular target: Recombinant human Cathepsin B (human, UniProt P07858 80-333)
Experiment: cell-based or functional assay
API note: the answer field is a bare number with no unit suffix.

Query :: For the binder shown here, RFK (N-terminus acylated with auristatin F (AF); Lys 3 side chain carries PEG4-Mal-Cys-Ac) [Compound 3, AF-Arg-Phe-Lys(PEG4-Mal-Cys-Ac)-OH] , give the reported Ratio (T1/2 Compound/T1/2 Reference).
Result :: 0.11

Query :: For the binder shown here, XKF (X at position 1 is citrulline (Cit); N-terminus acylated with auristatin F (AF); Lys 2 side chain carries PEG4-Mal-Cys-Ac) [Compound 19, AF-Cit-Lys(PEG4-Mal-Cys-Ac)-Phe-OH] , give the reported Ratio (T1/2 Compound/T1/2 Reference).
Result :: 0.09

Query :: For the binder shown here, FXKY (DM1-Mcc on the N-terminus of Phe; citrulline (Cit); Lys(PEG5-Ma-Cys-Ac)) [Compound 22, DM1-Mcc-Phe-Cit-Lys(PEG5-Ma-Cys-Ac)-Tyr-OH] , give the reported Ratio (T1/2 Compound/T1/2 Reference).
Result :: 0.005

Query :: For the binder shown here, XKY (X at position 1 is citrulline (Cit); DM1-Mcc on the N-terminus; Lys 2 side chain carries PEG5-Ma-Cys-Ac) [Compound 23, DM1-Mcc-Cit-Lys(PEG5-Ma-Cys-Ac)-Tyr-OH] , give the reported Ratio (T1/2 Compound/T1/2 Reference).
Result :: 4e-05

Query :: For the binder shown here, RKF (N-terminus acylated with auristatin F (AF); Lys 2 side chain carries PEG4-Mal-Cys-Ac) [Compound 1, AF-Arg-Lys(PEG4-Mal-Cys-Ac)-Phe-OH] , give the reported Ratio (T1/2 Compound/T1/2 Reference).
Result :: 0.12

Query :: For the binder shown here, FXFK (DM1-Mal on the N-terminus of Phe; citrulline (Cit); Lys(PEG4-Mal-Cys-Ac)) [Compound 7, DM1-Mal-Phe-Cit-Phe-Lys(PEG4-Mal-Cys-Ac)-OH] , give the reported Ratio (T1/2 Compound/T1/2 Reference).
Result :: 0.09

Query :: For the binder shown here, FKKF (DM1-Mal on the N-terminus of Phe; Lys(PEG4-Mal-Cys-Ac)) [Compound 5, DM1-Mal-Phe-Lys-Lys(PEG4-Mal-Cys-Ac)-Phe-OH] , give the reported Ratio (T1/2 Compound/T1/2 Reference).
Result :: 0.05

Query :: For the binder shown here, FXKF (DM1-Mal on the N-terminus of Phe; citrulline (Cit); Lys(PEG4-Mal-Cys-Ac)) [Compound 6, DM1-Mal-Phe-Cit-Lys(PEG4-Mal-Cys-Ac)-Phe-OH] , give the reported Ratio (T1/2 Compound/T1/2 Reference).
Result :: 0.02

Source: patent US20220062371A1
